assay: Selectivity ratio of Ki for human liver cathepsin L to Ki for human erythrocytes calpain-1

>  <compound>
COc1ccc(-c2ccn(-c3ncccc3C(=O)NC(Cc3ccccc3)C(=O)C(N)=O)n2)cc1 (stereo not drawn)

>  <Ratio Ki>
81

$$$$
>  <compound>
NC(=O)C(=O)C(Cc1ccccc1)NC(=O)c1cccnc1-n1cc2c(n1)CCCC2 (stereo not drawn)

>  <Ratio Ki>
45

$$$$
>  <compound>
CCCCC(NC(=O)c1cccnc1-n1cc(-c2ccccc2)cn1)C(=O)C(N)=O (stereo not drawn)

>  <Ratio Ki>
4

$$$$
>  <compound>
NC(=O)C(=O)C(Cc1ccccc1)NC(=O)c1cccnc1-n1cc2ccccc2n1 (stereo not drawn)

>  <Ratio Ki>
124

$$$$
>  <compound>
NC(=O)C(=O)C(Cc1ccccc1)NC(=O)c1cccnc1-c1nc(-c2ccccc2)cs1 (stereo not drawn)

>  <Ratio Ki>
37

$$$$
>  <compound>
NC(=O)C(=O)C(Cc1ccccc1)NC(=O)c1cccnc1-n1cccn1 (stereo not drawn)

>  <Ratio Ki>
20

$$$$
>  <compound>
NC(=O)C(=O)C(Cc1ccccc1)NC(=O)c1cccnc1-n1ccc(C2CCCCC2)n1 (stereo not drawn)

>  <Ratio Ki>
33

$$$$
>  <compound>
NC(=O)C(=O)C(Cc1ccccc1)NC(=O)c1cccnc1-n1cc2c(n1)-c1ccccc1OC2 (stereo not drawn)

>  <Ratio Ki>
278

$$$$
